measured.on: humane Tyrosinase (Homo sapiens)
Sequence (P14679 19-529): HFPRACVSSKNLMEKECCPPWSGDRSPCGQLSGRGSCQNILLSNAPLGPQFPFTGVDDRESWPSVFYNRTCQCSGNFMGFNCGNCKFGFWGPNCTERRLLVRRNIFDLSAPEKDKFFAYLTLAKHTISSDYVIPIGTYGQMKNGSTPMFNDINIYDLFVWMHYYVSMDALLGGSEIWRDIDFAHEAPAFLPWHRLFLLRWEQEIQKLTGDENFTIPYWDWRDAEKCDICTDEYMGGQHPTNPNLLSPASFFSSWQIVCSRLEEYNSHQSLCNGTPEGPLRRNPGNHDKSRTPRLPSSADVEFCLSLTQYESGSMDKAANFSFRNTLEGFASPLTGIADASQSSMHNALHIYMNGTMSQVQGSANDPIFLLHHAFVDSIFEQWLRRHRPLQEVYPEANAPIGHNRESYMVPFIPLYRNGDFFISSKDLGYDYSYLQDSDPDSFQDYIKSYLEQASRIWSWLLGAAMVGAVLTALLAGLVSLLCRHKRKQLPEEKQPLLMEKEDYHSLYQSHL
method: Enzyme test: conversion of L-DOPA to L-dopaquinone by human tyrosinase, MBTH detection, absorption at 490 nm
Type: biochemical
condition.description: Konzentration 10 µg/mL; substrate L-DOPA; read-out: Inhibition (% der Kontrolle)
Everything with inhibition at 10 µg/mL lower than 80% is condition not met; everything else, including exactly 80%, is condition met.

compound=N#Cc1ccc(C(=O)Nc2nc(-c3ccc(O)cc3O)cs2)cc1 measured_on="humane Tyrosinase (Homo sapiens)" classification="condition met"
compound="c1ccc(Nc2nc(-c3ccncc3)cs2)nc1 [reference compound]" measured_on="humane Tyrosinase (Homo sapiens)" classification="condition not met"
compound=O=C(Nc1nc(-c2ccc(O)cc2O)cs1)c1ccccc1 measured_on="humane Tyrosinase (Homo sapiens)" classification="condition met"
compound="C=CCN(C1=NC(C)(C)C(=C)S1)c1ccc(C)cc1C [reference compound]" measured_on="humane Tyrosinase (Homo sapiens)" classification="condition not met"
compound=CC(C)(C)c1ccc(C(=O)Nc2nc(-c3ccc(O)cc3O)cs2)cc1 measured_on="humane Tyrosinase (Homo sapiens)" classification="condition not met"
compound=O=C(Nc1nc(-c2ccc(O)cc2O)cs1)c1ccc2c(c1)OCO2 measured_on="humane Tyrosinase (Homo sapiens)" classification="condition met"

Answer whether inhibition at 10 µg/mL of `CC(=O)c1ccc(C(=O)Nc2nc(-c3ccc(O)cc3O)cs2)cc1` is greater than or equal to 80%. condition met

Answer whether inhibition at 10 µg/mL of CN(c1ccccc1)c1nc(-c2ccncc2)cs1 [reference compound] is greater than or equal to 80%. condition not met

Answer whether inhibition at 10 µg/mL of `O=C(Nc1nc(-c2ccc(O)cc2O)cs1)c1ccc(CO)nc1` is greater than or equal to 80%. condition met

Answer whether inhibition at 10 µg/mL of `O=C(Nc1nc(-c2ccc(O)cc2O)cs1)c1ccc(CO)cc1` is greater than or equal to 80%. condition met
